system: HEK-293T; experiment: Multiplex assay against HEK293T; assay type: toxicity, cell-based; details: human, 24 h, 10 µM, compound concentration 10 uM, replicate 2
quantity_name: Population Normal (%)

Sample records with Population Normal (%):
| compound | Population Normal (%) |
| --- | --- |
| CCCn1c(=O)c2[nH]c(-c3cnn(Cc4cccc(C(F)(F)F)c4)c3)nc2n(CC)c1=O [GS 6201] | 98% |
| Cn1nc(C(F)(F)F)cc1-c1cnc(N2CCc3cc(S(=O)(=O)Nc4c(F)cc(Cl)cc4F)cc(N4CCCC4=O)c32)nc1 [TP-020] | 96% |
| CCc1cccc(CC)c1NC(=O)c1nn(C)c2c1CCc1cnc(Nc3ccc(N4CCN(C)CC4)cc3OC)nc1-2 | 96% |
| O=C(Nc1cccnn1)N1CCC(=Cc2cccc(Oc3ccc(C(F)(F)F)cn3)c2)CC1 | 96% |
| CN1C2CCC1CC(OC(c1ccc(F)cc1)c1ccc(F)cc1)C2.Cl (configuration not stated) | 92% |
| O=C(Nc1ccc(Cl)cc1)Nc1cccc(-c2cccc(N3CCCC3)n2)c1 | 69% |

For each entry beneath this line, provide reported Population Normal (%).
1. S=C(NCCCc1c[nH]cn1)NCCCN(Cc1ccc(Cl)c(Cl)c1)c1ccc(Br)cn1
2. CCCS(=O)(=O)Nc1ccc(F)c(C(=O)c2c[nH]c3ncc(Cl)cc23)c1F [PLX-4720]
3. C=CCn1c(=O)c2cnc(Nc3ccc(N4CCN(C)CC4)cc3)nc2n1-c1cccc(C(C)(C)O)n1 [ADAVOSERTIB]

A:
["87%", "96%", "96%"]

For each entry beneath this line, provide reported Population Normal (%).
1. O=C1N/C(=N/c2ccccc2F)S/C1=C\c1ccc(C(=O)O)cc1
2. CCCS(=O)(=O)c1nc(NC2CC2)cc(-c2ccc3c(ccn3C3CC(C)(C)NC(C)(C)C3)c2)n1
3. COC(=N)c1nc2ccc3ncnc(Nc4ccc(OC)cc4F)c3c2s1
4. CCn1c(=O)c(-c2ccc(-c3cncs3)cc2Cl)cc2cnc(Nc3ccc(N4CCN(C)CC4)cc3)nc21
5. CCN1CCN(Cc2ccc(Nc3ncc(F)c(-c4cc(F)c5nc(C)n(C(C)C)c5c4)n3)nc2)CC1.CS(=O)(=O)O
6. O=C(Nc1ccc(-c2ccnc(Nc3ccc(N4CCOCC4)cc3)n2)cc1)[C@@H]1CCCN1

A:
1: 96%; 2: 89%; 3: 96%; 4: 95%; 5: 78%; 6: 95%

For each entry beneath this line, provide reported Population Normal (%).
1. NC(=O)c1cccc(-c2cc(Nc3ccc(OC(F)(F)F)cc3)ncn2)c1
2. Cc1ccc2nc(NCCN)c3ncc(C)n3c2c1.O=C(O)C(F)(F)F.O=C(O)C(F)(F)F
3. CN1CCN(C(=O)C(C)(C)c2ccc(C(=O)Nc3cn4cc(-c5cc(C(C)(C)C)cc(C(C)(C)C)c5)ccc4n3)cc2)CC1 [T3-CLK-N]
4. CNc1cc(Oc2cc(C(=O)Nc3cc(N4CCN(C)CC4)cc(C(F)(F)F)c3)ccc2C)ncn1
5. COc1ccc(S(=O)(=O)N(CCO)c2ccccc2CN(C)C/C=C/c2ccc(Cl)cc2)cc1.O=P(O)(O)O
6. COCC(=O)NC/C=C/c1ccc2ncnc(Nc3ccc(Oc4ccc(C)nc4)c(C)c3)c2c1 [CP-724714]
7. CNC(=O)c1ccc(Nc2nc(OC3CCCC3)c3c(-c4ccc5nc(C)oc5c4)c[nH]c3n2)c(OC)c1

A:
["96%", "89%", "96%", "81%", "97%", "93%", "94%"]
